From: patent US20260256789A1

Molecular target: KRAS G12C (GMPPNP-loaded) and cRAF Ras-binding domain (Homo sapiens, UniProt P01116, C118S/C51S/C80L/G12C)
Construct: truncated version comprising amino acids 1-169
Sequence (P01116 1-169 isoform P01116-2 G12C/C51S/C80L/C118S): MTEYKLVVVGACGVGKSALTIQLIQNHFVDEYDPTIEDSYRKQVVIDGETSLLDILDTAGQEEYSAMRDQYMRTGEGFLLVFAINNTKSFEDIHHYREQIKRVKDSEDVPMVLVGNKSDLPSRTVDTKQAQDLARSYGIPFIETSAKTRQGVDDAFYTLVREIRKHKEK
Test: Inhibition of KRAS G12C and cRAF binding (AlphaScreen)
Settings: KRAS G12C preloaded with GTP analogue GMPPNP, 2 hours preincubation
attribute-measured: IC50

Cc1cc(N)nc(-c2ncc3c(N(C)CC4CN(C(=O)/C=C/CN5CCOCC5)C4)nc(OC[C@@]45CCCN4C[C@H](F)C5)nc3c2F)c1C(F)(F)F	100 to 500 nM

[Q] Fill in IC50 for record `Cc1cc(N)nc(-c2ncc3c(N(C)CC4CN(C(=O)C#CCN5CCOCC5)C4)nc(OC[C@@]45CCCN4C[C@H](F)C5)nc3c2F)c1C(F)(F)F`
[A] 10 to 100 nM

[Q] For the compound Cc1nsc(/C=C/C(=O)N2CC(CN(C)c3nc(OC[C@@]45CCCN4C[C@H](F)C5)nc4c3C[C@H](C)[C@@H](c3nc(N)cc(C)c3C(F)(F)F)C4)C2)n1 (single isomer, unassigned) , give its reported IC50.
[A] ≥ 500 nM

[Q] Determine from records and report IC50 for `Cc1cc(N)nc(-c2ncc3c(N(C)[C@@H]4CCN(C(=O)/C=C/c5nc(C6CC6)no5)C4)nc(OC[C@@]45CCCN4C[C@H](F)C5)nc3c2F)c1C(F)(F)F`
[A] < 10 nM

###

Biological target: KRAS G12C (GMPPNP-loaded) and cRAF Ras-binding domain (Homo sapiens, UniProt P01116, C118S/C51S/C80L/G12C)
Construct: truncated version comprising amino acids 1-169
Assay: Inhibition of KRAS G12C and cRAF binding (AlphaScreen)
Settings: KRAS G12C preloaded with GTP analogue GMPPNP, 2 hours preincubation
attribute-measured: IC50

Sample records with IC50:
C=CC(=O)N1CC[C@@H](N(C)c2nc(OC[C@@]34CCCN3C[C@H](F)C4)nc3c(F)c(-c4cncc(F)c4C4CC4)ncc23)C1	≥ 500 nM
CN1CC[C@H]1/C=C/C(=O)N1CC[C@@H](N(C)c2nc(OC[C@@]34CCCN3C[C@H](F)C4)nc3c(F)c(-c4nc(N)cc5cccc(Cl)c45)ncc23)C1 (single isomer, unassigned) [Example 6]	< 10 nM
CN(c1nc(OC[C@@]23CCCN2C[C@H](F)C3)nc2c(F)c(-c3cccc(Cl)c3C3CC3)ncc12)[C@@H]1CCN(C(=O)/C=C/CN2C3COCC2C3)C1	10 to 100 nM
Cc1cc(N)nc(-c2ncc3c(N(C)[C@@H]4CCN(C(=O)C#CCN5CCOCC5)C4)nc(OC[C@@]45CCCN4C[C@H](F)C5)nc3c2F)c1C(F)(F)F	10 to 100 nM

From here, focus on the item given below.
[Q] Look up and state reported IC50 for `C=CC(=O)N1CC[C@@H](N(C)c2nc(OC[C@@]34CCCN3C[C@H](F)C4)nc3c(F)c(-c4cc(O)cc(Cl)c4C4CC4)ncc23)C1`
[A] < 10 nM

###

Target: KRAS G12C (GMPPNP-loaded) and cRAF Ras-binding domain (Homo sapiens, UniProt P01116, C118S/C51S/C80L/G12C)
Construct: truncated version comprising amino acids 1-169
Experiment: Inhibition of KRAS G12C and cRAF binding (AlphaScreen)
Settings: KRAS G12C preloaded with GTP analogue GMPPNP, 2 hours preincubation
Items are presented alongside their recorded IC50.

Answered examples (5):
CN1CC[C@@H]1/C=C/C(=O)N1CC[C@@H](N(C)c2nc(OC[C@@]34CCCN3C[C@H](F)C4)nc3c(F)c(-c4cc(O)cc(F)c4C4CC4)ncc23)C1	< 10 nM
C=CC(=O)N1CC[C@@H](N(C)c2nc(OC[C@@]34CCCN3C[C@H](F)C4)nc3c(F)c(-c4cc(O)ccc4C4CC4)ncc23)C1	10 to 100 nM
C=CC(=O)N1CC[C@@H](N(C)c2nc(OC[C@@]34CCCN3C[C@H](F)C4)nc3c(F)c(-c4ccc(F)c(F)c4C4CC4)ncc23)C1	≥ 500 nM
C=CC(=O)N1CC[C@@H](N(C)c2nc(OC[C@@]34CCCN3C[C@H](F)C4)nc3c(F)c(-c4nccc(C)c4C(F)(F)F)ncc23)C1	≥ 500 nM
CC(C)c1noc(/C=C/C(=O)N2CC[C@@H](N(C)c3nc(OC[C@@]45CCCN4C[C@H](F)C5)nc4c(F)c(-c5nc(N)cc6cccc(Cl)c56)ncc34)C2)n1	< 10 nM

Now for another entry.
[Q] Report measured IC50; entry is `C=CC(=O)N1CC[C@@H](N(C)c2nc(OC[C@@]34CCCN3C[C@H](F)C4)nc3c(F)c(-c4cccn5cncc45)ncc23)C1`
[A] ≥ 500 nM
